In this section, each of the compounds is paired with its reported fold change (FC).
procedureSummary: Induction of anti-CD3/CD28 antibodies-stimulated human T cell activation at 1 uM assessed fold increase in CD25 expression measured by ELISA assay
Assay type: functional, T cell line
Lab note: jot the number down without any unit.

# structure, measurement
rows = [
    ("Cc1cc(C(=O)Nc2cccc(-c3c(-c4nncn4C)cnn3C)c2)nc(C2CC2)n1", 1.01),
    ("C[C@H](Cc1nncn1C)c1cccc(N2Cc3c(cc(CN4CC(C)(O)C4)cc3C(F)(F)F)C2=O)c1", 1.31),
    ("C[C@H](Cc1nncn1C)c1cccc(N2Cc3c(cc(C(=O)N4CC(O)C4)cc3C3CC3)C2=O)c1", 1.01),
]

We next turn to a different compound, shown below.
query: Tell us which fold change (FC) value is on record for Cn1cnnc1C(F)(F)[C@](C)(F)c1cccc(N2Cc3c(cc(CN4CC[C@H](C#N)C4)cc3C(F)(F)F)C2=O)c1
result: 1.31

---

procedureSummary: Induction of anti-CD3 antibodies-stimulated human T cell activation at 8 uM assessed fold increase in IL-2 secretion measured by ELISA assay; note: reference of the scale not given here
Format: functional, T cell line
measure: fold change (FC)

Record excerpt, results attached:
# molecule, measure, measurement
rows = [
    ("Cn1cnnc1C(F)(F)C(C)(F)c1cccc(N2Cc3c(cc(CN4CC[C@@H](F)C4)cc3C(F)(F)F)C2=O)c1 (single isomer, unassigned)", "fold change (FC)", ">=0.201"),
    ("C[C@H](Cc1nncn1C)c1cccc(N2Cc3c(cc(C(=O)N4CC[C@H](O)C4)cc3C(F)(F)F)C2=O)c1", "fold change (FC)", ">=0.201"),
    ("C[C@H](Cc1nncn1C)c1cccc(NC(=O)c2cc(C(=O)N3CC(O)C(F)(F)C3)ccn2)c1 (some centres undefined)", "fold change (FC)", ">=0.201"),
    ("Cc1cc(C(=O)Nc2cccc([C@H](C)Cc3nncs3)c2)nc(C2CC2)n1", "fold change (FC)", ">=0.201"),
    ("Cc1ccc(C(=O)Nc2cccc(C(C)Cc3nccn3C)c2)nc1C1CC1 (stereo in doubt; 214)", "fold change (FC)", 0.051),
]

query: Supply reported fold change (FC) belonging to this molecule: C[C@H](Sc1nncn1C)c1cc(F)cc(N2Cc3c(cccc3C(F)(F)F)C2=O)c1
result: <=0.05

query: Complete the entry with fold change (FC) for Cn1cnnc1C[C@H](c1cccc(N2Cc3c(cccc3C(F)(F)F)C2=O)c1)C(F)(F)F
result: 0.101

query: Read off the recorded fold change (FC) for Cn1cnnc1CC1(c2cccc(N3Cc4c(cc(CN5CC(C#N)C5)cc4C(F)(F)F)C3=O)c2)COC1
result: >=0.201

query: Output measured fold change (FC) for this item: C[C@H](Sc1nncn1C)c1cccc(NC(=O)c2ccc3ccccc3n2)c1
result: 0.051

query: Please give measured fold change (FC) of the following entry: C[C@H](Sc1nncn1C)c1cccc(NC(=O)c2ccnc(C3CC3)n2)c1
result: 0.051

---

procedureSummary: Induction of anti-CD3/CD28 antibodies-stimulated human T cell activation at 4 uM assessed fold increase in CD25 expression measured by ELISA assay
Type: functional, T cell line
measure: fold change (FC)

Consider the reported fold change (FC) for these molecules:
# molecule, measurement
measured = [
    ("C[C@H](Cc1nncn1C)c1cccc(N2Cc3c(cc([C@@H](C)N4CC(O)C4)cc3C(F)(F)F)C2=O)c1", 1.31),
    ("C[C@H](Cc1nncn1C)c1cccc(NC(=O)c2cccc(C(C)(C)C)n2)c1", 1.01),
    ("Cn1cnnc1CC1(c2cccc(N3Cc4c(cc(CN5CC[C@H](F)C5)cc4C(F)(F)F)C3=O)c2)COC1", 1.51),
    ("C[C@H](Cc1nncn1C)c1cccc(N2Cc3c(cc(CN4CC(O)C4)cc3C(F)(F)F)C2=O)c1", 1.31),
]

query: Give the measured fold change (FC) for C[C@H](Sc1nncn1C)c1cccc(NC(=O)c2cc3ccccc3cn2)c1
result: 1.01

query: Answer with the recorded fold change (FC) of C[C@@H](c1cc2c(c(C(F)(F)F)c1)CN(c1cccc(C3(Cc4nncn4C)COC3)c1)C2=O)N1CCC(F)(F)C1 only.
result: 1.31

query: Identify measured fold change (FC) associated with C[C@H](Cc1nncn1C)c1cccc(NC(=O)c2nc3c(C(F)(F)F)cccc3[nH]2)c1
result: >=1.76

query: Answer with the recorded fold change (FC) for the molecule listed here: Cc1cc(C(=O)Nc2cc([C@H](C)Sc3nncn3C)ccn2)nc(C(F)(F)F)c1
result: 1.01

query: Quickly give me recorded fold change (FC) for CCNc1cc([C@H](C)Cc2nncn2C)cc(N2Cc3c(cccc3C(F)(F)F)C2=O)n1
result: 1.51

query: Report measured fold change (FC); entry is C[C@H](Cc1nnc[nH]1)c1cccc(N2Cc3c(cccc3C(F)(F)F)C2=O)c1
result: 1.31

query: Give reported fold change (FC) value for C[C@H](Cc1nncn1C)c1cccc(N2Cc3c(cc(C(=O)N4CC[C@H](O)C4)cc3C3CC3)C2=O)c1
result: 1.31

query: Dear colleague, please send me the reported fold change (FC) for Cn1cnnc1[C@@H]1C[C@@H]1c1cccc(N2Cc3c(cccc3C(F)(F)F)C2=O)c1 when you can.
result: >=1.76

query: Supply recorded fold change (FC) for C[C@H](Cc1nncn1C)c1cccc(NC(=O)c2cc(O[C@H]3CC[C@@H](O)C3)ccn2)c1 here.
result: 1.01

query: Provide only the value of recorded fold change (FC) for Cc1ccc(C(=O)Nc2cccc(C(C)C(F)(F)c3nncn3C)c2)nc1C1CC1 (stereo not drawn)
result: 1.01

query: // fetch fold change (FC) given entry C[C@H](Cc1nncn1C)c1cccc(N2Cc3c(cc(CN4CC[C@H](F)C4)cc3C(F)(F)F)C2=O)c1
result: 1.31

query: Quick one: give measured fold change (FC) for C[C@H](c1cc2c(c(C(F)(F)F)c1)CN(c1cccc([C@@](C)(F)C(F)(F)c3nncn3C)c1)C2=O)N1CC[C@H](F)C1
result: 1.51

query: Look up and report measured fold change (FC) for this entry: C[C@H](Sc1nncn1C)c1cccc(NC(=O)c2cc(C(C)(C)O)c(Cl)cn2)c1
result: 1.01

query: Specify reported fold change (FC) for the molecule shown: C[C@H](Cc1nncn1C1CC1)c1cccc(N2Cc3c(cccc3C(F)(F)F)C2=O)c1
result: 1.01

---

procedureSummary: Induction of anti-CD3/CD28 antibodies-stimulated human T cell activation at 4 uM assessed fold increase in IL-2 secretion measured by ELISA assay
Assay type: functional, T cell line
measure: fold change (FC)
Reply with just the number.

Recorded results for 2 compounds are shown here.
# structure, fold change (FC)
data = [
    ("C[C@H](Cc1nncn1C)c1cccc(NC(=O)c2cc(O[C@H]3CC[C@@H](O)C3)ccn2)c1", 2.51),
    ("Cc1cc(C(=O)Nc2cccc([C@H](C)Cc3nocc3C)c2)nc(C2CC2)n1", 5),
]

query: Give the reported fold change (FC) for this compound. C[C@H](Cc1nocc1C(F)(F)F)c1cccc(N2Cc3c(cc(C(=O)N4CC[C@H](O)C4)cc3C(F)(F)F)C2=O)c1
result: 2.51

---

procedureSummary: Induction of anti-CD3/CD28 antibodies-stimulated human T cell activation at 0.3 uM assessed fold increase in IL-2 secretion measured by ELISA assay
Format: functional, T cell line
Each item that follows carries a reported fold change (FC).
Provide a numeric answer; units are not to be included.

# structure, measurement
data = [
    ("Cn1cnnc1CC1(c2cccc(NC(=O)c3csc(C4CC4)n3)c2)COC1", 1.01),
    ("CN1C[C@H]2CC[C@@H](C1)N2c1cc(C(=O)Nc2cccc(C3(Cc4nncn4C)COC3)c2)nc(C2CC2)n1", 5),
]

Consider the additional molecule presented here.
query: Recall and state the measured fold change (FC) for Cc1cc(C(=O)Nc2cccc(C3([C@H](F)c4nncn4C)COC3)c2)nc(C2CC2)n1 .
result: 2.51

---

Entries and their fold change (FC)
procedureSummary: Induction of anti-CD3/CD28 antibodies-stimulated human T cell activation at 1 uM assessed fold increase in CD25 expression measured by ELISA assay
Assay type: functional, T cell line

# compound, measurement
data = [
    ("C[C@H](Cc1nncn1C)c1cccc(NC(=O)c2cc3cc(N4CCNCC4)ccc3cn2)c1.Cl", 1.01),
    ("Cc1cc(C(=O)Nc2cccc([C@H](C)Sc3nncn3C)c2)nc2ccccc12", 1.01),
    ("CCOc1cc(N2Cc3c(cc(CN4CC[C@H](F)C4)cc3C(F)(F)F)C2=O)cc(C2(Cc3nncn3C)COC2)c1", 1.31),
]

query: Give a short answer stating reported fold change (FC) for Cn1cnnc1CC1(c2cccc(N3Cc4c(cc(C(O)c5ccccc5)cc4C(F)(F)F)C3=O)c2)COC1 (stereo not given) .
result: 1.31

query: Given the compound Cn1cnnc1CC1(c2cccc(N3Cc4c(ccnc4C(F)(F)F)C3=O)c2)COC1 , write its reported fold change (FC).
result: 1.01
